Here the recorded IC50 is given for each entry.
biological target: BACE1 (Homo sapiens, UniProt P56817); construct: recombinant BACE1 protein in a final concentration of 0.04 μg/ml; test: BACE1 biochemical FRET based assay; conditions: recombinant BACE1 0.04 μg/ml, 20 μM substrate, 450 min, pH 5.0; read-out: BIOCHEMICAL FRET BASED ASSAY pIC50 (converted)
Sequence (P56817 46-501): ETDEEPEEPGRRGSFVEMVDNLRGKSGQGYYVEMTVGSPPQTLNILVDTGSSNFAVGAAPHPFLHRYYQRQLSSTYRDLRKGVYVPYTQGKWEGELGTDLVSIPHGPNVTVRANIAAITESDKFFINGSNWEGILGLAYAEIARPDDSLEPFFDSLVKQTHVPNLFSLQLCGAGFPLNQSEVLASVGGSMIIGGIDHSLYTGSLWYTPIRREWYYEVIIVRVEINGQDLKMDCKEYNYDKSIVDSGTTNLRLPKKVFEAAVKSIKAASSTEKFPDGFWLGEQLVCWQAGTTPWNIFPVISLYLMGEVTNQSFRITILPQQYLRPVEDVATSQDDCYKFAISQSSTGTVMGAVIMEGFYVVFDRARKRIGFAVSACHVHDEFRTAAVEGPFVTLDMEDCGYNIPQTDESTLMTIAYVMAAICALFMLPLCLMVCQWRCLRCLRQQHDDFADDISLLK
Reply numerically in µM, unit not repeated.

Here is how some compounds turned out for IC50.
Incoming: Query: IC50; subject: COc1ncc(Br)c2c1CC1(c3cc(Br)c(F)cc3F)N=C(N)SCC1C2 (racemic) [Compound 19]
Outgoing: 0.162

Incoming: Suppose we examine the compound COc1nccc2c1CC1(c3cc(-c4cncnc4)ccc3F)N=C(N)SCC1C2 (racemic) [Compound 10] ; what IC50 value has been reported?
Outgoing: 0.0355

Incoming: Bench note: what IC50 did COc1nccc2c1CC1(c3cc([N+](=O)[O-])c(F)cc3F)N=C(N)SCC1C2 (racemic) [Compound 8] show?
Outgoing: 0.219

Please turn your attention to the following entry.
Incoming: # input compound: COCC(=O)Nc1cc(C23Cc4c(ccnc4OC)CC2CSC(N)=N3)c(F)cc1F (single isomer, unassigned) [Compound 199] ; wanted: its IC50
Outgoing: 0.0162
